# System: Pseudomonas aeruginosa
# PROCEDURE_DETAILS: Antibacterial activity against polymyxin-susceptible Pseudomonas aeruginosa FADD1-PA038 clinical isolates assessed as reduction in bacterial growth by broth microdilution method
# Assay type: functional
Doc: threshold 8 µg/mL (exclusive). Items with MIC beneath it return MET; others return NOT MET.

INSERT INTO measurements (smiles_structure, label) VALUES
  ('CC[C@H](C)CCCCC(=O)N[C@@H](CCN)C(=O)N[C@H](C(=O)N[C@@H](CCN)C(=O)N[C@H]1CCNC(=O)[C@H](CCSC)NC(=O)[C@H](CCN)NC(=O)[C@H](CCN)NC(=O)[C@H](CC(C)C)NC(=O)[C@@H](Cc2ccccc2)NC(=O)[C@H](CCN)NC1=O)[C@@H](C)O', 'MET'),
  ('CC[C@H](C)CCCCC(=O)N[C@@H](CCN)C(=O)N[C@H](C(=O)N[C@@H](CCN)C(=O)N[C@H]1CCNC(=O)[C@H](C(C)(C)C)NC(=O)[C@H](CCN)NC(=O)[C@H](CCN)NC(=O)[C@H](CC(C)C)NC(=O)[C@@H](Cc2ccccc2)NC(=O)[C@H](CCN)NC1=O)[C@@H](C)O', 'MET'),
  ('CC[C@H](C)CCCCC(=O)N[C@@H](CCN)C(=O)N[C@H](C(=O)N[C@@H](CCN)C(=O)N[C@H]1CCNC(=O)[C@H](CCCCN)NC(=O)[C@H](CCN)NC(=O)[C@H](CCN)NC(=O)[C@H](CC(C)C)NC(=O)[C@@H](Cc2ccccc2)NC(=O)[C@H](CCN)NC1=O)[C@@H](C)O', 'NOT MET'),
  ('CC[C@H](C)CCCCC(=O)N[C@@H](CCN)C(=O)N[C@H](C(=O)N[C@@H](CCN)C(=O)N[C@H]1CCNC(=O)[C@H](CO)NC(=O)[C@H](CCN)NC(=O)[C@H](CCN)NC(=O)[C@H](CC(C)C)NC(=O)[C@@H](Cc2ccccc2)NC(=O)[C@H](CCN)NC1=O)[C@@H](C)O', 'MET'),
  ('CC[C@H](C)CCCCC(=O)N[C@@H](CCN)C(=O)N[C@H](C(=O)N[C@@H](CCN)C(=O)N[C@H]1CCNC(=O)[C@H](CC(N)=O)NC(=O)[C@H](CCN)NC(=O)[C@H](CCN)NC(=O)[C@H](CC(C)C)NC(=O)[C@@H](Cc2ccccc2)NC(=O)[C@H](CCN)NC1=O)[C@@H](C)O', 'NOT MET'),
  ('CC[C@H](C)CCCCC(=O)N[C@@H](CCN)C(=O)N[C@H](C(=O)N[C@@H](CCN)C(=O)N[C@H]1CCNC(=O)[C@H]([C@@H](C)OC)NC(=O)[C@H](CCN)NC(=O)[C@H](CCN)NC(=O)[C@H](CC(C)C)NC(=O)[C@@H](Cc2ccccc2)NC(=O)[C@H](CCN)NC1=O)[C@@H](C)O', 'NOT MET');

// next entry
Determine whether this compound shows MIC lower than 8 µg/mL (ties excluded): CC[C@H](C)CCCCC(=O)N[C@@H](CCN)C(=O)N[C@H](C(=O)N[C@@H](CCN)C(=O)N[C@H]1CCNC(=O)[C@H](CC(=O)O)NC(=O)[C@H](CCN)NC(=O)[C@H](CCN)NC(=O)[C@H](CC(C)C)NC(=O)[C@@H](Cc2ccccc2)NC(=O)[C@H](CCN)NC1=O)[C@@H](C)O
NOT MET
